meta.source: patent US9029546B2

# measured-on: PKC Delta (Homo sapiens, UniProt Q05655)
# Sequence (Q05655 whole entry): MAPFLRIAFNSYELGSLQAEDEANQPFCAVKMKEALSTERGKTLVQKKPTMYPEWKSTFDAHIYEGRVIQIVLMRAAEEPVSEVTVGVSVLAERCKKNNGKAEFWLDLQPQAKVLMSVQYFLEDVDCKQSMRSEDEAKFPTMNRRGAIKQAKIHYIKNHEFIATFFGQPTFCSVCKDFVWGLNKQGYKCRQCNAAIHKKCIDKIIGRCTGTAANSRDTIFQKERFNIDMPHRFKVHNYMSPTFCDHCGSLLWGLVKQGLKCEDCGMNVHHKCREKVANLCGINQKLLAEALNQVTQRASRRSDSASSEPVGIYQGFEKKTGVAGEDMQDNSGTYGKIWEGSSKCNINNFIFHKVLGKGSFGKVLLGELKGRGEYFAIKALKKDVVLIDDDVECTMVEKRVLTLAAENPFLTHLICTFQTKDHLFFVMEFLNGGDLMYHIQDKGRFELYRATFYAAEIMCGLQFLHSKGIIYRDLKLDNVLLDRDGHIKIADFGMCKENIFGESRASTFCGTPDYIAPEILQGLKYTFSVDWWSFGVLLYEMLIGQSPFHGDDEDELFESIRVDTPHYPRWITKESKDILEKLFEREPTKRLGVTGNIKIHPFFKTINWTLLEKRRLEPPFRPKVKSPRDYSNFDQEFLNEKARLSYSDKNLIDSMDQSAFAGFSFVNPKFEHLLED
# test-details: PKC delta coupled-enzyme kinase assay (NADH consumption)
# condition: 240 μM ATP, 30° C.
Reported values of Ki for individual entries

compound: CC(C)(CN)COc1ccc(C(F)(F)F)c(-c2n[nH]c3ncccc23)n1
measured-on: PKC Delta (Homo sapiens, UniProt Q05655)
Ki: > 700 nM
--
compound: OCCNc1ccc(C(F)(F)F)c(-c2n[nH]c3ncccc23)n1
measured-on: PKC Delta (Homo sapiens, UniProt Q05655)
Ki: > 700 nM
--
compound: N#CCCOc1ccc(C(F)(F)F)c(-c2n[nH]c3ncccc23)n1
measured-on: PKC Delta (Homo sapiens, UniProt Q05655)
Ki: > 700 nM
--
compound: O[C@H]1CC[C@H](Nc2ccc(C(F)(F)F)c(-c3n[nH]c4ncccc34)n2)CC1
measured-on: PKC Delta (Homo sapiens, UniProt Q05655)
Ki: > 700 nM
--
compound: c1cc(NCC2CCCN2)nc(-c2n[nH]c3ncccc23)c1 (stereo not shown)
measured-on: PKC Delta (Homo sapiens, UniProt Q05655)
Ki: > 700 nM
--
compound: OC[C@H](Cc1ccccc1)Nc1ccc(C(F)(F)F)c(-c2n[nH]c3ncccc23)n1
measured-on: PKC Delta (Homo sapiens, UniProt Q05655)
Ki: > 700 nM
--
compound: CC(C)C[C@H](N)COc1ccc(C(F)(F)F)c(-c2n[nH]c3ncccc23)n1
measured-on: PKC Delta (Homo sapiens, UniProt Q05655)
Ki: < 500 nM
--
compound: CC(C)(CN)CNc1cccc(-c2n[nH]c3ncccc23)n1
measured-on: PKC Delta (Homo sapiens, UniProt Q05655)
Ki: < 500 nM
--
compound: CC[C@H](CO)Nc1ccc(C(F)(F)F)c(-c2n[nH]c3ncccc23)n1
measured-on: PKC Delta (Homo sapiens, UniProt Q05655)
Ki: > 700 nM
--
compound: CNCCN(C)c1cccc(-c2n[nH]c3ncccc23)n1
measured-on: PKC Delta (Homo sapiens, UniProt Q05655)
Ki: < 2800 nM

----------
This listing pairs compounds with measured Ki.
# measured-on: PKC Delta (Homo sapiens, UniProt Q05655)
# test-details: PKC delta coupled-enzyme kinase assay (NADH consumption)
# condition: 240 μM ATP, 30° C.

compound: CC(C)CC1(CNc2ccc(F)c(-c3n[nH]c4ncccc34)n2)CNC1 [Compound 68]
measured-on: PKC Delta (Homo sapiens, UniProt Q05655)
Ki: < 0.05 µM

compound: FC(F)(F)c1ccc(NCC2CCCN2)nc1-c1n[nH]c2ncccc12 (stereo not drawn) [Compound 28]
measured-on: PKC Delta (Homo sapiens, UniProt Q05655)
Ki: > 0.7 µM

compound: NC1CCC(Nc2ccc(C(F)(F)F)c(-c3n[nH]c4ncccc34)n2)CC1 (stereo not drawn) [Compound 35]
measured-on: PKC Delta (Homo sapiens, UniProt Q05655)
Ki: > 0.7 µM

compound: CC(CO)Nc1ccc(C(F)(F)F)c(-c2n[nH]c3ncccc23)n1 (stereo not drawn) [Compound 73]
measured-on: PKC Delta (Homo sapiens, UniProt Q05655)
Ki: > 0.7 µM

compound: CN(CCO)c1ccc(C(F)(F)F)c(-c2n[nH]c3ncccc23)n1 [Compound 58]
measured-on: PKC Delta (Homo sapiens, UniProt Q05655)
Ki: > 0.7 µM

compound: CCC(O)CNc1ccc(C(F)(F)F)c(-c2n[nH]c3ncccc23)n1 (stereo not drawn) [Compound 83]
measured-on: PKC Delta (Homo sapiens, UniProt Q05655)
Ki: > 0.7 µM

compound: FC(F)(F)c1ccc(NCCN2CCCC2)nc1-c1n[nH]c2ncccc12 [Compound 60]
measured-on: PKC Delta (Homo sapiens, UniProt Q05655)
Ki: > 0.7 µM

compound: FC(F)(F)c1ccc(NCC2CNC2)nc1-c1n[nH]c2ncccc12 [Compound 66]
measured-on: PKC Delta (Homo sapiens, UniProt Q05655)
Ki: > 0.7 µM

compound: CN(CCC#N)c1ccc(C(F)(F)F)c(-c2n[nH]c3ncccc23)n1 [Compound 75]
measured-on: PKC Delta (Homo sapiens, UniProt Q05655)
Ki: < 0.5 µM

----------
# measured-on: PKC theta kinase (Homo sapiens, UniProt Q04759)
# Sequence (Q04759 whole entry): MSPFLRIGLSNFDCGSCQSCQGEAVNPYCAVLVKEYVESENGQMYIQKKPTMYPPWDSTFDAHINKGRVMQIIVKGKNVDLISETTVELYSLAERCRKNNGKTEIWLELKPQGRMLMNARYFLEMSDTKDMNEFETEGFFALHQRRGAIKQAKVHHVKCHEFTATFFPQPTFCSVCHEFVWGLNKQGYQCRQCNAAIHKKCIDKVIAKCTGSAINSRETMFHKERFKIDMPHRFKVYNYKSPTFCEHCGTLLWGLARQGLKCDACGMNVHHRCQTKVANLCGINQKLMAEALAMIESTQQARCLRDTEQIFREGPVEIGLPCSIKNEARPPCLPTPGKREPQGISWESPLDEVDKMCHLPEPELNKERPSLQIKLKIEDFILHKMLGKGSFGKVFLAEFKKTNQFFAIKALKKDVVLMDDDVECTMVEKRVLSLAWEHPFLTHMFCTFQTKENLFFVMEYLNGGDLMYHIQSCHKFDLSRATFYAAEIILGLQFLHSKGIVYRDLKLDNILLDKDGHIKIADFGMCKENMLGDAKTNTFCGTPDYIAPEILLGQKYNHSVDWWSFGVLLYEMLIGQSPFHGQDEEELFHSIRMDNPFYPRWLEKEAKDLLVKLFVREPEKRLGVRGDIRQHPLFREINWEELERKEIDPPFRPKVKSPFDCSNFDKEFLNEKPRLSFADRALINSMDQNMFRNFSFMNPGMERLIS
# test-details: PKC theta coupled-enzyme kinase assay (NADH consumption)
# Assay type: biochemical
# condition: 240 μM ATP, 30° C.
Ki reference

molecule: c1cc(NC2CCNC2)nc(-c2n[nH]c3ncccc23)c1 (stereo not shown)
Ki: < 500 nM
--
molecule: CC(C)(CN)CNc1ccc(C(F)(F)F)c(-c2n[nH]c3ncccc23)n1
Ki: < 500 nM
--
molecule: N#CCCNc1ccc(C(F)(F)F)c(-c2n[nH]c3ncccc23)n1
Ki: > 700 nM
--
molecule: NCC1CCC(CNc2cccc(-c3n[nH]c4ncccc34)n2)CC1 (stereo not shown)
Ki: < 500 nM
